System: Staphylococcus aureus ATCC 25923
// values below are reported MIC

Consider the following illustrative entries.
CC(C)C[C@H](NC(=O)[C@H](CC(C)C)NC(=O)[C@H](CCCCN)NC(=O)[C@H](Cc1c[nH]c2ccccc12)NC(=O)[C@H](Cc1c[nH]c2ccccc12)NC(=O)[C@@H](N)CCCCN)C(=O)N[C@@H](CCCN=C(N)N)C(=O)N[C@@H](CCCCN)C(=O)N[C@@H](CCCCN)C(=O)N[C@@H](CCCN=C(N)N)C(N)=O [KWWKLLRKKR] : 21.7 µM
CSCC[C@H](NC(=O)[C@H](CCCN=C(N)N)NC(=O)[C@H](Cc1c[nH]c2ccccc12)NC(=O)[C@H](CCC(N)=O)NC(=O)[C@H](Cc1c[nH]c2ccccc12)NC(=O)[C@H](CCCN=C(N)N)NC(=O)[C@@H](N)CCCN=C(N)N)C(=O)N[C@@H](CCCCN)C(=O)N[C@@H](CCCCN)C(=O)N[C@@H](CC(C)C)C(=O)NCC(=O)O [RRWQWRMKKLG] : 30 µM

Next item in the queue.
### Prompt Dear colleague, I am looking for the recorded MIC of the following compound: NC(=O)[C@H](CCCN=C(N)N)NC(=O)[C@H](Cc1c[nH]c2ccccc12)NC(=O)[C@H](Cc1c[nH]c2ccccc12)NC(=O)[C@H](CCCN=C(N)N)NC(=O)[C@H](Cc1c[nH]c2ccccc12)NC(=O)[C@H](Cc1c[nH]c2ccccc12)NC(=O)[C@H](CCCN=C(N)N)NC(=O)[C@@H](N)CCCN=C(N)N [RRWWRWWR]
### Response 1.8 µM

* * *

System: Acinetobacter baumannii ATCC 19606
Measured endpoint: MIC

### Prompt // map CC[C@H](C)[C@H](NC(=O)[C@H](C)NC(=O)[C@H](CC(C)C)NC(=O)[C@H](CO)NC(=O)[C@H](C)NC(=O)[C@@H](NC(=O)CNC(=O)[C@H](CO)NC(=O)[C@@H](NC(=O)[C@@H](NC(=O)[C@H](Cc1cnc[nH]1)NC(=O)[C@@H]1CCCN1C(=O)[C@@H](NC(=O)[C@H](CC(C)C)NC(=O)[C@H](CO)NC(=O)[C@H](CC(C)C)NC(=O)[C@@H](N)Cc1ccccc1)[C@@H](C)CC)[C@@H](C)CC)C(C)C)C(C)C)C(=O)N[C@@H](Cc1cnc[nH]1)C(=O)N[C@@H](Cc1ccccc1)C(N)=O to recorded MIC (system: Acinetobacter baumannii ATCC 19606)
### Response > 200 µM

* * *

Test system: Pseudomonas aeruginosa ATCC 27853
Test description: ≥ marks a high value that may be exact or a test limit, other limits are often not marked, values filed in µg/mL are converted to µM
// values below are reported MIC
Numeric answer only, unit µM assumed.

Consider the following illustrative entries.
CC(C)C[C@H](NC(=O)[C@H](CC(C)C)NC(=O)[C@@H](NC(=O)[C@H](CCCCN)NC(=O)[C@H](Cc1ccccc1)NC(=O)[C@H](CCCN=C(N)N)NC(=O)[C@H](CCCCN)NC(=O)[C@H](CC(C)C)NC(=O)[C@H](CC(C)C)NC(=O)CN)[C@@H](C)O)C(N)=O : 16
CC(C)C[C@H](NC(=O)[C@H](CC(C)C)NC(=O)[C@H](CCCCN)NC(=O)[C@H](CCCCN)NC(=O)[C@H](CC(C)C)NC(=O)[C@@H]1CCCN1C(=O)[C@H](CCCCN)NC(=O)[C@H](CC(C)C)NC(=O)[C@@H](N)Cc1ccccc1)C(N)=O : 7.28

Next item in the queue.
### Prompt Dear colleague, I am looking for the recorded MIC of the following compound: CC(C)C[C@H](NC(=O)[C@H](CCCCN)NC(=O)[C@H](CCCCN)NC(=O)[C@H](C)NC(=O)[C@@H](NC(=O)[C@H](CCCCN)NC(=O)[C@H](CO)NC(=O)[C@H](CC(C)C)NC(=O)[C@H](Cc1c[nH]c2ccccc12)NC(=O)[C@H](CC(C)C)NC(=O)[C@H](CCCCN)NC(=O)[C@H](CCCCN)NC(=O)[C@H](C)NC(=O)[C@@H](NC(=O)[C@H](CCCCN)NC(=O)[C@H](CO)NC(=O)[C@H](CC(C)C)NC(=O)[C@@H](N)Cc1c[nH]c2ccccc12)[C@@H](C)O)[C@@H](C)O)C(N)=O
### Response 16
